System: 922993-354-T-J3-PDC complex spheroids, viability
ASSAY: Anticancer human tumor 922993-354-T-J3-PDC patient-derived endometrial carcinoma cell line growth inhibition [GQUAD]
MEASUREMENT CONDITIONS: second compound 0.0316 µM; first compound 10 µM; active compounds read low
viability, T/C listing for selected compounds.

- COMPOUND: "CC(C)n1c(=O)n(C)c2cnc3cc(F)c(-c4ccc(OCCCN5CCCCC5)nc4)cc3c21 + CN(C)c1ccc(Nc2c3ccc(NC(=O)CCN4CCCC4)cc3nc3cc(NC(=O)CCN4CCCC4)ccc23)cc1"
  TGT: "922993-354-T-J3-PDC complex spheroids, viability"
  viability, T/C: "71.4%"

# evaluate next
May I ask what viability, T/C has been recorded for O=C(c1cc(Cc2n[nH]c(=O)c3ccccc23)ccc1F)N1CCN(C(=O)C2CC2)CC1 + Cc1cnc(CNC(=O)c2c(=O)c3ccc(N4CCCN(C)CC4)nc3n3c2sc2ccccc23)cn1 ?
75%

---

Tested on: 922993-354-T-J3-PDC complex spheroids, viability
ASSAY: Anticancer human tumor 922993-354-T-J3-PDC cell line growth inhibition [GQUAD];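 note: spheroids exposed to compounds for seven days; 100% = DMSO vehicle control viability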
MEASUREMENT CONDITIONS: second compound 0.1 µM; first compound 0.316 µM; active compounds read low
MEASUREMENT LABEL: viability, T/C (%)
Output spec: scalar in %, unitless text.

- COMPOUND: "Cc1[nH]c2ccccc2c1CCNCc1ccc(/C=C/C(=O)NO)cc1 + Cc1[nH]c2ccc(F)cc2c1-c1nc2c3cccnc3c3ncccc3c2[nH]1"
  viability, T/C [%]: 55.8

May I ask what viability, T/C has been recorded for CCCS(=O)(=O)Nc1ccc(F)c(C(=O)c2c[nH]c3ncc(-c4ccc(Cl)cc4)cc23)c1F + Cc1cnc(CNC(=O)c2c(=O)c3ccc(N4CCCN(C)CC4)nc3n3c2sc2ccccc23)cn1 ?
56.1

Query C#Cc1c(F)ccc2cc(O)cc(-c3ncc4c(N5CC6CCC(C5)N6)nc(OCC56CCCN5CC(F)C6)nc4c3F)c12 (stereo not drawn) + CN(C)c1ccc(Nc2c3ccc(NC(=O)CCN4CCCC4)cc3nc3cc(NC(=O)CCN4CCCC4)ccc23)cc1 next
94.3

---

viability, T/C listing for selected compounds.
System: 922993-354-T-J3-PDC complex spheroids, viability
ASSAY: Anticancer human tumor 922993-354-T-J3-PDC cell line growth inhibition [GQUAD];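 note: spheroids exposed to compounds for seven days; 100% = DMSO vehicle control viability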
MEASUREMENT CONDITIONS: second compound 0.0316 µM; first compound 0.316 µM; active compounds read low
Output spec: scalar in %, unitless text.

Give recorded viability, T/C with 922993-354-T-J3-PDC complex spheroids, viability for the following compound: Cc1[nH]c2ccccc2c1CCNCc1ccc(/C=C/C(=O)NO)cc1 + CN(C)c1ccc(Nc2c3ccc(NC(=O)CCN4CCCC4)cc3nc3cc(NC(=O)CCN4CCCC4)ccc23)cc1
62.5

Query CC1COCCN1c1cc(C2(O)CC3CCC(C2)O3)c2cnn(-c3ccn[nH]3)c2n1 (stereo unspecified) + Cc1[nH]c2ccc(F)cc2c1-c1nc2c3cccnc3c3ncccc3c2[nH]1 next
50.8

---

Test system: 922993-354-T-J3-PDC complex spheroids, viability
ASSAY: Anticancer human tumor 922993-354-T-J3-PDC cell line growth inhibition [GQUAD];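 note: spheroids exposed to compounds for seven days; 100% = DMSO vehicle control viability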
MEASUREMENT CONDITIONS: second compound 0.316 µM; first compound 10 µM; active compounds read low
Text: DNA G-quadruplex Stabilizer Agents in Combinations in Complex Spheroids A high-throughput screen of multi-cell type tumor spheroids was designed to identify active combinations of DNA G-quadruplex stabilizer agents and targeted small molecules. […] Compounds. […] If the clinical Cmax for an agent had not been determined, the highest concentration tested was 10 microM. […]
viability, T/C listing for selected compounds.
Output spec: scalar in %, unitless text.

// known answers, use as guide
- COMPOUND: "COc1cc(C2c3cc4c(cc3C(OC3OC5COC(C)OC5C(O)C3O)C3COC(=O)C23)OCO4)cc(OC)c1O (stereo not drawn) + Cc1[nH]c2ccc(F)cc2c1-c1nc2c3cccnc3c3ncccc3c2[nH]1"
  TGT: "922993-354-T-J3-PDC complex spheroids, viability"
  viability, T/C, %: 61.8
- COMPOUND: "CCCS(=O)(=O)Nc1ccc(F)c(C(=O)c2c[nH]c3ncc(-c4ccc(Cl)cc4)cc23)c1F + Cc1[nH]c2ccc(F)cc2c1-c1nc2c3cccnc3c3ncccc3c2[nH]1"
  TGT: "922993-354-T-J3-PDC complex spheroids, viability"
  viability, T/C, %: 56.2

# evaluate next
Give recorded viability, T/C with 922993-354-T-J3-PDC complex spheroids, viability for the following compound: CC1COCCN1c1cc(C2(S(C)(=N)=O)CC2)nc(-c2ccnc3[nH]ccc23)n1 (stereo not drawn) + CN(C)c1ccc(Nc2c3ccc(NC(=O)CCN4CCCC4)cc3nc3cc(NC(=O)CCN4CCCC4)ccc23)cc1
64.6
